- Tested on: corn (Zea mays)
- assay-info: Test A postemergence
- Type: in vivo
- condition: 125 g ai/ha, postemergence; visual injury rating on 0 to 100 scale (0 no effect, 100 complete control), approx. 10 d
Exercise: for every item that follows, state its recorded Corn plant response rating.
Quick one: just the number, no unit, thanks!

Problem: Item under review: CN1CC(c2ccc(C(F)(F)F)cc2)C(C(=S)Nc2ccccc2F)C1=O (stereo not drawn) . Reported Corn plant response rating?
Solution: 20

Problem: So what's the measured Corn plant response rating for this one? Cc1ccc(F)c(NC(=O)C2C(=O)NCC2c2cccc(OC(F)F)c2)c1 (stereo not drawn)
Solution: 0

Problem: Return reported Corn plant response rating; argument: O=C1NCC(c2ccc(C(F)(F)F)c(F)c2)C1C(=O)Nc1ccc(F)cc1F (racemic)
Solution: 0

* * *

- Test system: velvetleaf (Abutilon theophrasti)
- assay-info: Test G Pre-Emergence Protocol
- Assay type: in vivo
- condition: Abutilon theophrasti, pre-emergence, 312 h, 62.5 g ai/ha, evaluated after 13 days, 100=total damage to plant, 0=no damage to plant, read-out: plant damage rating, Velvetleaf
metric-name: pest or weed control at 62.5 g/ha (%)
Report the value in % with no unit label.

Problem: Recorded pest or weed control at 62.5 g/ha of CCOC(=O)c1cccc([C@H]2CN(C)C(=O)[C@@H]2C(=O)Nc2ccccc2F)c1 (racemic) , please.
Solution: 0

Problem: What value of pest or weed control at 62.5 g/ha has been reported for the following compound? CN1C[C@H](c2ccc(C(F)(F)F)cc2)[C@@H](C(=O)Nc2ncc(Cl)cc2Cl)C1=O (racemic)
Solution: 0

Problem: Reported pest or weed control at 62.5 g/ha, compound CN1C[C@@H](c2ccc(C(F)(F)F)cc2)[C@H](C(=O)Nc2ccc(F)c(F)c2Cl)C1=O (racemic) : ____
Solution: 20

Problem: Fill in the blank: the reported pest or weed control at 62.5 g/ha of Cc1ccc([C@H]2CN(C)C(=O)[C@@H]2C(=O)Nc2cccnc2F)cc1 is ____.
Solution: 60

* * *

- Test system: pigweed (Amaranthus retroflexus)
- assay-info: Test A preemergence
- Type: in vivo
- condition: Amaranthus retroflexus, pre-emergence, 240 h, 125 g ai/ha, preemergence; 0 to 100 scale where 0 is no effect and 100 is complete control; read-out: Pigweed plant response rating
metric-name: pest or weed control at 125 g/ha (%)
Answer format: numeric, % implied, no suffix.

Problem: Requested read-out: pest or weed control at 125 g/ha. Entry: CSc1ccccc1NC(=O)[C@H]1C(=O)N(C)C[C@@H]1c1cccc(COC(F)F)c1
Solution: 0

Problem: Consider the compound CSc1ccccc1NC(=O)[C@H]1C(=O)NC[C@@H]1c1cccc2c1OC(F)(F)O2 and give its measured pest or weed control at 125 g/ha.
Solution: 0

Problem: Looking for the measured pest or weed control at 125 g/ha of CC(C)c1cccc([C@H]2CN(C)C(=O)[C@@H]2C(=O)Nc2ccccc2F)c1 , can you help?
Solution: 30

Problem: Which pest or weed control at 125 g/ha value belongs to CN1C[C@H](c2ccc(C(F)(F)F)cc2)[C@@H](C(=O)Nc2ccccc2[S+](C)[O-])C1=O (stereo partly shown) ?
Solution: 80

Problem: I would be grateful if you could share the reported pest or weed control at 125 g/ha for CN1C[C@H](c2cccc(C3CC3)c2)[C@@H](C(=O)Nc2ccc(F)cc2F)C1=O .
Solution: 20

Problem: Query: pest or weed control at 125 g/ha; subject: COc1c(F)ccc([C@H]2CNC(=O)[C@@H]2C(=O)Nc2ccc(F)c(F)c2F)c1Cl
Solution: 30

Problem: Report pest or weed control at 125 g/ha for COc1ccccc1NC(=O)[C@H]1C(=O)N(C)C[C@@H]1c1ccc(C(F)(F)F)cc1 please.
Solution: 0

All figures here come from patent US12077503B2.
